Test: folding stability dG unfold (combined trypsin and chymotrypsin); higher = more stable
Below is a list of entries, each paired with its recorded folding stability dG unfold value.
Kindly answer with a numeric value in kcal/mol, unit omitted.

Example entries begin here.
Give folding stability dG unfold for SAGGSAGGSAGGKKYIIKNKKTNKYIEVDVIEKDGKLYVYDKKTGKVHEVSLKDLEIVPSAGGSAGGSAGGS [r10_28_TrROS_Hall]
2.33

Give folding stability dG unfold for SAGGSAGGSEVKVLVYPPKGPPRLFADDVPIETLVAQFTAEDPPEPLVLVTKEEAEKLGFPLESAGGSAGGS [r12_379_TrMRF]
0.27

Give folding stability dG unfold for SAMILLIKIENKNDGKEFIIEITPNKITIYDKKTGKKYEITVDGNTITIKINGKTYKAKIKEVIPEEELSAG [r14_208_TrROS_Hall]
3.54

Give folding stability dG unfold for SAGGSSVLINHTKTFSSEEEAEKEAEELKEKAKKEGFDEVKVEISKDPSGGTYTLKVTIKKKLPPDLKSAGG [r19_92_JUSTAS]
2.87

Moving on to another sequence below.
Give folding stability dG unfold for STLEQILDAIESMPPGWVFRIKIHHPNGEPHEHRFNMTYDDIKAQLENMIDHHPGQPIKIKIEFMPPEDFSA [r9_37_TrROS]
3.38

Data credit: the supplement of paper PMC12764529
